Overview of reported Cells stained (%) across a group of binders:
target-of-assay: T1, PTPRG, endogenous in H929 multiple myeloma cells (human, UniProt P23470 20-1445)
T1 construct: Native protein on H929 cells (flow cytometry, siRNA knockdown) and in H929 lysates (IP/MS); also called phosphatase receptor type γ
T1 sequence (P23470 20-1445 limits assumed): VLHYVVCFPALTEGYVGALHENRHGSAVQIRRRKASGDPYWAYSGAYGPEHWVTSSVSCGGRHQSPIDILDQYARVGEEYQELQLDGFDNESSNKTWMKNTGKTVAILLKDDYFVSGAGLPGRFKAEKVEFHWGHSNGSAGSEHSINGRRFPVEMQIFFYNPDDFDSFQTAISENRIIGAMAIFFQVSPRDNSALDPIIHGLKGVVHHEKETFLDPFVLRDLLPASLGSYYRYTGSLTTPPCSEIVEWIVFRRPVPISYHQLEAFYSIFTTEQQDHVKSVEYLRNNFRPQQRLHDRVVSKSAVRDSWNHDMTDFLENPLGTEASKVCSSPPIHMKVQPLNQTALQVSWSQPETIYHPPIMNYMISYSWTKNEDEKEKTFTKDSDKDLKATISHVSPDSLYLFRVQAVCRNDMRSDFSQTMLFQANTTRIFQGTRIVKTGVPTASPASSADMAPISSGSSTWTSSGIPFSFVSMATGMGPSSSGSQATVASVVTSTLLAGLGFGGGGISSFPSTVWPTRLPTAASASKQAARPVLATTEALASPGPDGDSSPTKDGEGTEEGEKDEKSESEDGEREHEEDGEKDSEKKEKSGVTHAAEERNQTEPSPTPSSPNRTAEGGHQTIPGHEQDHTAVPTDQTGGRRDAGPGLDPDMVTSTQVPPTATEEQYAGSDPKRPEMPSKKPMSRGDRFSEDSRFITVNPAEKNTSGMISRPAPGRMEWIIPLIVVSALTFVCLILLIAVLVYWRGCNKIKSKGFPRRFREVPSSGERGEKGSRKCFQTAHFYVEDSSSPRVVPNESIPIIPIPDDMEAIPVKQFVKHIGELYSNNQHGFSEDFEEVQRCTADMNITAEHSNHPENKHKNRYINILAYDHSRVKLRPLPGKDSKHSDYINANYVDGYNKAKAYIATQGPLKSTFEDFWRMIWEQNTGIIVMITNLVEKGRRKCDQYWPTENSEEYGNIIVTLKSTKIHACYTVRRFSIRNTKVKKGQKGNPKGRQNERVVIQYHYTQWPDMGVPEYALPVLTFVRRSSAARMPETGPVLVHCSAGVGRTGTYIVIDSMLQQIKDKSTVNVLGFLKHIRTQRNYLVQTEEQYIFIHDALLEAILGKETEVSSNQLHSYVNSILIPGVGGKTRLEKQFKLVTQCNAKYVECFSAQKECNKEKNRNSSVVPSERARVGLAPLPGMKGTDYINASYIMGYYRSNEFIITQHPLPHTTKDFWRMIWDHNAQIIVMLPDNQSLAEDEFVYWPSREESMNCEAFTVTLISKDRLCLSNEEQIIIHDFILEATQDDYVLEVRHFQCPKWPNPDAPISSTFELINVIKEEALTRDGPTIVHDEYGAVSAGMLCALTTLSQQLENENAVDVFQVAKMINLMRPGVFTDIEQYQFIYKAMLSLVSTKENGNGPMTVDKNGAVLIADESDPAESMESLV
assay-remarks: flow cytometry, H929 + CADM1 siRNA; None 0.89
Quick reminder: number only, in %, skip the unit.

Req: State, in one line, measured Cells stained (%) of HW-70 chimeric rabbit-human IgG1 LA/LA/PG (antibody, V domains shown, Fc-silenced (L234A/L235A/P329G) IgG1, lambda; Alexa Fluor 647-labeled in single-step flow cytometry; Cluster C-1) VH: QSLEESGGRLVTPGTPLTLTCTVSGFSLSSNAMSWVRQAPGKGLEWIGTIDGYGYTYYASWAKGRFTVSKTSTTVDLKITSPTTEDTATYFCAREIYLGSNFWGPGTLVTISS VL: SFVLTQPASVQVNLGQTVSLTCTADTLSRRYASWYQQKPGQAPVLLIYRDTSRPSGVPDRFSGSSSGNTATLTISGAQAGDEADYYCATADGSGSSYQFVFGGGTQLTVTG
Resp: 98.7

# next binder below
Req: State, in one line, measured Cells stained (%) of HW-1 chimeric rabbit-human IgG1 LA/LA/PG (antibody, V domains shown, Fc-silenced (L234A/L235A/P329G) IgG1, lambda; Alexa Fluor 647-labeled in single-step flow cytometry; Prototype of cluster C-1) VH: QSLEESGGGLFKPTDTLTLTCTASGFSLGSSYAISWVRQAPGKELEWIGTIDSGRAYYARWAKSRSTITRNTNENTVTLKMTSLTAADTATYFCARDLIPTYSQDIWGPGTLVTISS VL: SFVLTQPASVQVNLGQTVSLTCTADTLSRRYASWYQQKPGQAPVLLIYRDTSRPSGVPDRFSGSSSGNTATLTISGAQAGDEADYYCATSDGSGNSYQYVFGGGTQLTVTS
Resp: 99.3
